# Tested on: 556581-035-R-J1-PDC complex spheroid viability;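 note: spheroids exposed to agents for seven days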
# Experiment Notes: Anticancer human tumor 556581-035-R-J1-PDC patient-derived ovarian carcinoma cell line growth inhibition
# Experimental Parameters: second compound 0.316 µM; first compound 0.000949 µM; active compounds read low
# note: boundary value 80% maps to Condition not met; viability, T/C below it maps to Condition met

>>> category("Nc1ncn(C2CC(O)C(CO)S2)c(=O)n1 (stereo unspecified) + NC1CC1c1ccc(-c2cccc(O)c2)cc1")
"Condition not met"
>>> category("Nc1ncn(C2CC(O)C(CO)S2)c(=O)n1 (stereo unspecified) + NC1CCC(NC2CC2c2ccccc2)CC1")
"Condition not met"
>>> category("CCc1c2c(nc3ccc(O)cc13)-c1cc3c(c(=O)n1C2)COC(=O)[C@]3(O)CC + NC1CC1c1ccc(-c2cccc(O)c2)cc1")
"Condition met"
>>> category("Nc1ccn(C2OC(CO)C(O)C2(F)F)c(=O)n1 (stereo unspecified) + NC1CC1c1ccc(-c2cccc(O)c2)cc1")
"Condition met"
>>> category("CCc1c2c(nc3ccc(O)cc13)-c1cc3c(c(=O)n1C2)COC(=O)[C@]3(O)CC + NC1CCC(NC2CC2c2ccccc2)CC1")
"Condition met"
>>> category("Nc1ccn(C2OC(CO)C(O)C2(F)F)c(=O)n1 (stereo unspecified) + NC1CCC(NC2CC2c2ccccc2)CC1")
"Condition met"
